Target: UniProtKB P09874
Sequence (P09874 662-1014): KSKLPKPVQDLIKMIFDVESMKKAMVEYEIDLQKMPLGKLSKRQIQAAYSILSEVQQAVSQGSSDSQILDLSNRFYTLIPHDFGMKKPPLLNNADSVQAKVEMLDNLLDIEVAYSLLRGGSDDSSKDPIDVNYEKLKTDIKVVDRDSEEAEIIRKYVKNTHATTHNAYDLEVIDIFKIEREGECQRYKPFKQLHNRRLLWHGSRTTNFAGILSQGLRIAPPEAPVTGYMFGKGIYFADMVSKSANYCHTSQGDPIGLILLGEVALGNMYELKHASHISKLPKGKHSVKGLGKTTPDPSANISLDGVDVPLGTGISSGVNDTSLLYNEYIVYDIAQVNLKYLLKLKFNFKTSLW
pKd: −log10 of the molar value.
experimental endpoint: pKd

Req: Supply measured pKd of NC(=O)c1ccc[n+]([C@@H]2O[C@H](COP(=O)(O)OP(=O)(O)OC[C@H]3O[C@@H](n4cnc5c(N)ncnc54)[C@H](OP(=O)(O)O)[C@@H]3O)[C@@H](O)[C@H]2O)c1 in your reply.
Resp: ~4.41
